MEASURED_TARGET: T1, human LIGHT (TNFSF14), full length, membrane-bound (214E allele) (human, UniProt O43557 1-240)
T1 construct: also called membrane LIGHT; human membrane LIGHT
T1 sequence (O43557 whole entry K214E): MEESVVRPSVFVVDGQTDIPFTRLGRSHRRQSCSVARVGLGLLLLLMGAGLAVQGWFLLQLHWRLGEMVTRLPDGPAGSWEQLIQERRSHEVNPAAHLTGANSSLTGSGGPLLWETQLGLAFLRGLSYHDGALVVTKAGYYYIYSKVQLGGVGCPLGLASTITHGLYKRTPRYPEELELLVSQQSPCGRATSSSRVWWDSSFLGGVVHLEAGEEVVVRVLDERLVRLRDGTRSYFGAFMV
ASSAY_REMARKS: DcR3-His (1 nM) competition, EL4-LIGHT, flow cytometry; 100 nM
Below: a set of entries, each annotated with reported DcR3-His binding, % of irrelevant mAb.
ASSAY_READOUT: DcR3-His binding, % of irrelevant mAb (%)

[
  {
    "BINDER": "2E08 (antibody, human IgG4, V domains shown, chimeric human IgG4 (S-to-P, L-to-E at 248), human CL; also called Parental 2E08) VH: QVQMKESGAELVRPGVSVKISCKGSGYTFTDYAIHWVKQSHAKTLEWIGVISTYYGDASYNQKFKGKATMTVDKSSSTAYMELARLTSDDSAIYYCARSRGEYGNYDAMDYWGQGTSVTVSS VL: DIVLTQSPASLAVSLGQRATISCKASQSVDYDGDSYMNWYQQKPGQPPKLLIYAASNLESGIPARFSGSGSGTDFTLNIHPVEEEDAATYYCQQSNEDPLTFGAGTKLELK",
    "VALUE_UNITS": "%",
    "RECORDED_MEASUREMENT": 53.7
  },
  {
    "BINDER": "3E09 (antibody, V domains shown, chimeric human IgG4 (S-to-P, L-to-E at 248), human CL; also called Parental 3E09) VH: EVQLVESGGGLVKPGGSLKLSCEASGFTFSDYYMYWVRQTPEKRLEWVAAIGDGGIYTYYADTVKGRFTISRDNAKNILYLQMSSLKSNDTAMYYCARGTGDGFAYWGQGTLVTVS VL: DIVLTQSPASLAVSLGQRATISCRASESVDSYGNSFMHWYQQKPGQPPKLLIYLASNLESGVPARFSGSGSRTDFTLTIDPVEADDAATYYCQQNNEDPYTFGGGTKLEIK",
    "VALUE_UNITS": "%",
    "RECORDED_MEASUREMENT": 65
  },
  {
    "BINDER": "2B11 (antibody, human IgG4, V domains shown, chimeric human IgG4 (S-to-P, L-to-E at 248), human CL; also called Parental 2B11) VH: EVQLVESGAELVRPGVSVKISCKGSGYTFTDYAIHWVKQSHAKSLEWIGVISTYYGDASYNQKFKGKATMTVDKSSSTAYMELARLTSEDSAIYYCARSRGEYGNYDAMDYWGQGTSVTVSS VL: DIVLTQSPASLAVSLGQRATISCRASESVDSYGNSFMHWYQQKPGQPPKLLIYRASNLESGIPARFSGSGSRTDFTLTINPVEADDVATYYCQQSNEDPYTFGGGTKLEIK",
    "VALUE_UNITS": "%",
    "RECORDED_MEASUREMENT": 70.6
  },
  {
    "BINDER": "3B04 (antibody, human IgG4, V domains shown, chimeric: mouse variable domains on human IgG4 HC (S-to-P and L-to-E at 248) and human CL; also called Parental 3B04; 3B04 chimeric) VH: QVQLQQPGAELVRPGASVTLSCKASGYTFTDYEMHWVKQTPVHGLEWIGEIDPETGDTAYSQKFKGKATLTADKSSSTAYMEFRSLTSEDSAVYYCSRETDYFFDYWGQGTTLTVSS VL: DIQMTQTPASLSASVGETVTITCGASENIYGALNWYQRKQGKSPQLLIYGATNLADGMSSRFSGSGSGRQYSLKISSLHPDDFATYYCQNVLTTPWTFGGGTKLEIKR",
    "VALUE_UNITS": "%",
    "RECORDED_MEASUREMENT": 75.8
  },
  {
    "BINDER": "3A07 (antibody, human IgG4, V domains shown, chimeric human IgG4 (S-to-P, L-to-E at 248), human CL; also called Parental 3A07) VH: QVQLQQSGAELVRPGAPVTLSCKASDYTFTDSEIHWVKQTPVHGLEWIGEIDPETGGTAYNQKFKGKATLTADKSSSTAYMELRSLTSEDSAVYYCSRETDYFFDYWGQGTTLTVSS VL: ENVLTQSPAIMSASPGEKVTMTCSASSSVSYMYWYQQRPGSSPRLLIYDTSNLASGVPVRFSGSGSGTSYSLTISRMEAEDAATYYCQQWSSYPLTFGSGTKLEIK",
    "VALUE_UNITS": "%",
    "RECORDED_MEASUREMENT": 64.2
  },
  {
    "BINDER": "3C10 (antibody, human IgG4, V domains shown, chimeric human IgG4 (S-to-P, L-to-E at 248), human CL; also called Parental 3C10) VH: EVQLQQSGAELVRPGASVTLSCKASDYTFTDSEIHWVKQTPVHGLEWIGEIDPETGGTAYNQKFKGKATLTADKSSSTAYMELRSLTSEDSAVYYCSRETDYFFDYWGQGTTLTVSS VL: DVVMTQTPAIMSASPGEKVTMTCSASSSVSYMYWYQQKPGSSPRLLIYDTSNLASGVPVRFSGSGSGTSYSLTISRMEAEDAATYYCQQWSSYPLTFGAGTKLELK",
    "VALUE_UNITS": "%",
    "RECORDED_MEASUREMENT": 63.8
  },
  {
    "BINDER": "3D12 (antibody, human IgG4, V domains shown, chimeric: mouse variable domains on human IgG4 HC (S-to-P and L-to-E at 248) and human CL; also called Parental 3D12; 3D12 chimeric) VH: QVQLQQPGAELVRPGASVTLSCKASDYTFTDSEIHWVKQTPVHGLEWIGEIDPETGGTAYNQKFKGKATLTADKSSSTAYMELRSLTSEDSAVYYCSRETDYFFDYWGQGTTLTVSS VL: DIQMTQSPASLSASVGETVTITCGASENIYGALNWYQRKQGKSPQLLIYGATNLADGMSSRFSGSGSGRQYSLKISSLHPDDVATYYCQNVLSTPWTFGGGTKLEIKR",
    "VALUE_UNITS": "%",
    "RECORDED_MEASUREMENT": 80.3
  }
]
